Catalogue of responders at 0.3 mg/kg readings, one per entry.
Test: Dark Avoidance Assay (scopolamine induced memory deficit reversal)
Type: in vivo, mice
Conditions: Mus musculus; mice, dose 0.3 mg/kg of body wt, retest after 24 hours; read-out: % of Animals With Scopolamine Induced Memory Deficit Reversal

{"columns": ["molecule", "responders at 0.3 mg/kg"],
 "data": [
  ["NN1C(=O)C(Cc2ccncc2)(Cc2ccncc2)c2ccccc21", "21%"],
  ["CCCN(c1ccncc1F)N1C(=O)Cc2ccccc21", "20%"],
  ["CCCN(c1ccncc1F)N1C(=O)C(C)(C)c2ccccc21", "21%"],
  ["CCCN(c1ccncc1)N1C(=O)C(C)(C)c2ccccc21", "20%"],
  ["CC1C(=O)N(Nc2ccncc2F)c2ccccc21 (centres unmarked)", "27%"]
]}

Value source: patent US5686626A
